Item-by-item account of cell viability
Tested on: OCI-AML2
Assay: cell viability relative to vehicle control; higher = less cytotoxic;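 also: after 48 h exposure read by CellTiter-Glo luminescence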
Run Parameters: 10 µM; SRSF2 genotype: wt/wt
Where a name gives a salt, the structure may show the parent alone.
Quick note: give the figure in %, leave out the unit.

Problem: Identify measured cell viability obtained with OCI-AML2 for Cc1nc(Nc2ccc(F)cc2)nc(N2CCc3ccccc3C2C)c1C (stereo unspecified) [Revaprazan Hydrochloride] .
Solution: 67.2

Problem: Identify measured cell viability obtained with OCI-AML2 for "CN(C)CCNC(=O)c1cccn2c(=O)c3cc4ccccc4cc3nc12" .
Solution: 1.23

Others:
Problem: Identify measured cell viability obtained with OCI-AML2 for COc1ccc(-c2cc(=O)c3c(O)cc(O)cc3o2)cc1 [Acacetin] .
Solution: 102

Problem: Identify measured cell viability obtained with OCI-AML2 for CNCCCC12CCC(c3ccccc31)c1ccccc12 [Maprotiline hydrochloride] .
Solution: 56.8

Problem: Identify measured cell viability obtained with OCI-AML2 for CC=C(C)C(=O)OC1C(OC(C)=O)C2(CO)C(O)CC3(C)C(=CCC4C5(C)CCC(OC6OC(C(=O)O)C(OC7OC(CO)C(O)C(O)C7O)C(O)C6OC6OC(CO)C(O)C(O)C6O)C(C)(CO)C5CCC43C)C2CC1(C)C (stereo unspecified) [Escin] .
Solution: 31.4

----------
System: OCI-AML2
Assay: cell viability relative to vehicle control; higher = less cytotoxic
Run Parameters: 10 µM; SRSF2 genotype: P95H/wt
Exam item: assign 1.0 to entries whose cell viability is below 90% and 0.0 to entries at or above 90%. Note that a value of exactly 90% receives 0.0.

Sample answers from the record:
Problem: In the record for O=C1NC(=O)[C@@H](c2cn3c4c(cccc24)CCC3)[C@@H]1c1c[nH]c2ccccc12 [ARQ 197 (Tivantinib)] , is cell viability less than 90%?
Solution: 1.0

Problem: In the record for "COc1ccc(C(=O)CC(=O)c2ccc(C(C)(C)C)cc2)cc1" , is cell viability less than 90%?
Solution: 1.0

Problem: In the record for "Fc1ccc2c(/C=C/c3nn[nH]n3)c[nH]c2c1" , is cell viability less than 90%?
Solution: 0.0

Problem: In the record for CCC1CC(=Cc2cccnc2)C(=O)C(=Cc2cccnc2)C1 (stereo not drawn) , is cell viability less than 90%?
Solution: 1.0

Problem: In the record for "COc1cc(C=O)cc(OC)c1O" , is cell viability less than 90%?
Solution: 0.0

Problem: In the record for "CCN1CCN(c2cc3c(cc2F)c(=O)c(C(=O)O)cn3C2CC2)CC1" , is cell viability less than 90%?
Solution: 0.0

Problem: In the record for O=C(NOCC(O)CO)c1cc(Br)c(F)c(F)c1Nc1ccc(I)cc1F (stereo not drawn) , is cell viability less than 90%?
Solution: 1.0

Problem: In the record for "C/C=C(/C)C(=O)OC(C)(C)[C@@H]1Cc2c(ccc3ccc(=O)oc23)O1" , is cell viability less than 90%?
Solution: 1.0

Others:
Problem: In the record for Nc1nc2ccc(OC(F)(F)F)cc2s1 [Riluzole (Rilutek)] , is cell viability less than 90%?
Solution: 0.0

Problem: In the record for "O=C1C(=Cc2cccnc2)C(=O)c2ccccc21" , is cell viability less than 90%?
Solution: 0.0

----------
Item-by-item account of cell viability
Tested on: MARIMO
Assay: cell viability relative to vehicle control; higher = less cytotoxic
Run Parameters: 10 µM; SRSF2 genotype: SRSF2 wt/wt
Please report the result as a number followed by the unit.

The cases that follow already have their cell viability on record.
Problem: Please report the measured cell viability for CC=C(C)C(=O)OC1C(OC(C)=O)C2(CO)C(O)CC3(C)C(=CCC4C5(C)CCC(OC6OC(C(=O)O)C(OC7OC(CO)C(O)C(O)C7O)C(O)C6OC6OC(CO)C(O)C(O)C6O)C(C)(CO)C5CCC43C)C2CC1(C)C (centres undefined)
Solution: 90.1%

Problem: Please report the measured cell viability for "CCOC(=O)c1ncn2c1CN(C)C(=O)c1cc(F)ccc1-2"
Solution: 107%

Problem: Please report the measured cell viability for Cc1cc(Nc2ncc3c(n2)N(C)C(=O)N(c2cc(NC(=O)c4cccc(C(F)(F)F)c4)ccc2C)C3)n(C)n1 [Pluripotin (SC1)]
Solution: 21.8%

Continue with the compound presented below.
Problem: Please report the measured cell viability for Cc1ncc([N+](=O)[O-])n1CC(C)O (centres undefined)
Solution: 105%

Hey, just so you know, these numbers are from the supplement of paper PMC10981050.
